- assay.summary: yeast display, Sf9 membrane polyspecificity reagent, FACS + sequencing; frameworks hold sequencing errors
assay.endpoint: polyreactivity (PSR sort gate)

Consider the worked cases shown below.
QVQLVESGGGIVQAGGSLRLSCAASGNIFFWYDMGWYRQAPGKERELVATITSSGGSTYYADSVKGRFTISRDNAKNTVYLQMNSLKPEDTAVYYCNALPYYRDDYWGQGTQVTVSS ... low polyreactivity
QVQLVESGGGLVQAGGSLRLSCAASGRNFQVYAMGWYRQAPGKERELVAAISFSGDRTYYADSVKGRFTISRDNAKNTVYLQMNSLKPEDTAVYYCSADGFVYDLRARPGWVDYWGQGTQVTVSS ... low polyreactivity
QVQLVESGVGLVQAGGSLRLSCAASGFTFYSNAMGWYRQAPGKERELVAAITGRVGRTYYADSVKGRFTISRDNAKNTVYLLMNSLKPEDTAVYYCAAVYQVSTWGGRYYFRQGYDYWGQGTQVTVSS ... high polyreactivity
QVQLVESGGGLVQAGGSLRLSCAASGRIFGVYVMGWYRQAPGKERELVAAISWSGSHTYYADSVKGRFTISRDNAKNTVYLQMNSLKPEDTAVYYCAAGASLWRLGLKMGYWGQGTQVTVSS ... low polyreactivity

// polyreactivity (PSR sort gate) lookup, sequence = "QVQLVESGGGLVQAGGSLRLSCAASGSTFRWYTMGWYRQAPGKERELVATISSSTDITYYADSVKGRFTISRDNAKNTVYLQMNSLKPEDTAVYYCAARRVYHYRYYYWGQGTQVTVSS" , result: high polyreactivity

###

- assay.summary: yeast display, Sf9 membrane polyspecificity reagent, FACS + sequencing; frameworks hold sequencing errors
assay.endpoint: polyreactivity (PSR sort gate)

QVQLVESGGGLVQAGGSLRLSCAASGSIIRGNAMGWYRQAPGKERELVAAISKRGGSTYYADSVKGRFTISRDNAKNTVYLQMNSLKPEDTAVYYCASDLPAALGFDYWGQGTQVTVSS ... high polyreactivity
QVQLVESGGGLVQAGGSLRLSCAASGSTFPKYAMGWYRQAPGKERELVASISVTTGSTYYADSVKGRFTISRDNAKNTVYLQMNSLKPEDTAVYYCAKRTYSRKFRGAYNYWGQGTQVTVSS ... high polyreactivity
QVQFVESGGGLVQAGGSLRLSCAASGSIFYRYTMGSYRQAPGKERELVAAISSRGGSTYYADSVKGRFTISRDNAKNTVYLQMNSLKPEDTAVYYCAARYFRNPVFVIMDYWGQGTQVTVSS ... high polyreactivity

###

- assay.summary: yeast display, Sf9 membrane polyspecificity reagent, FACS + sequencing; frameworks hold sequencing errors
assay.endpoint: polyreactivity (PSR sort gate)

QVQLVESGGGLVQAGGSLLLSCAASGSILRMYVMGWYRQAPGKESELVADRSDRGGSTYYADSVKGRFTISRDNAKNTVYLQMNSLKPEDTAVYYCAKDSETAGATYTEYDYWGQGTQVTVSS ... low polyreactivity
QVQLVESGGGLVQAGGSLRLSCAASGSIFVSNAMGWYRQAPGTERELVAAISGGGSTYYADSVKGRFTISRDNAKNTVFLQMNSLKPEDTAVYYCAKKGGHRTYGYDSWGQGTQVTVSS ... low polyreactivity

###

- assay.summary: yeast display, Sf9 membrane polyspecificity reagent, FACS + sequencing; frameworks hold sequencing errors
assay.endpoint: polyreactivity (PSR sort gate)

Consider the worked cases shown below.
QVQLVESGGGLVQAGGSLRLSCAASGRTFRLYAMGWYRQAPGKERELVADITTGGGSTYYADSVKGRFTISRDNAKNTVYLQMNSLKPEDTAVYYCAAEQDTVWFLWIVDYWGQGTQVTVSS ... low polyreactivity
QDQLVDSGGGLVQAGGSLRLSCGASGSTFRKYAMGWYRQAPGQEREFVAAITWSTGTTYYADSVKGRFTISRDNAKNTVYLQMNSLKREDTAVYYCAADSQPPHDLYESIEHESWGLGTQVTVSS ... low polyreactivity
QVQLVESGGGLVQAGRSHRLSCAASGSTYANTMGWYIQAPGKERELDAAITYTGGSTYYADSVKGRFTISRDNAKNTVYLQMNSLKPEDTAVYYCAADAQAPPGGFKEYDYWGQGTQVTVSS ... low polyreactivity
QVQLVESGGGLVQAGGSLRLSCAASGTFYKYAMGWYRQAPGKERELVAAISWRGGRTYADSVKGRFTISRDNAKNTVYLQMNSLKPEDTAVYYCNKRFYPEHYYWGQGTQVTVSS ... high polyreactivity
QVHLVESGGGLGQAGGSLRLSGAASGFIFGDYAMGWYRQAPGKERELVADINWTGGSTYYADSVKGRFTISRDNANNTVYLQMKSLKPEDTEVYYCDKDDYAFLITWVDYWGQGTQVTVSS ... low polyreactivity
QVQLVESGGGLVQAGGSLRLSCAASGSTFTYYTMAWYRQAPGKERELVAAISWSGGRTYYADSVKGRFTISRDNAKNTVYLQMNSLKPEDTAVYYCAAGPAPGHDSWGQGTQVTVSS ... high polyreactivity

Next, consider the following sequence.
// polyreactivity (PSR sort gate) lookup, sequence = "QVQVVESGGGLVQAGGSLRLSCAASGSTFVLNAMGWYRQAPGKERELVAAITYGGSTYYADSVKGRFTISRDNAKNTVYLQMNSLKPEDTAVYYCAVTYNGDSSWPGDYWGQGTQVTVSS" , result: low polyreactivity
